Recorded measurements of transcriptional activation domain activity, one per entry
- Tested on: Saccharomyces cerevisiae
- assay.details: transcriptional activation domain activity (GFP:mCherry ratio, weighted mean of sorted bins, harmonized to initial dataset scale) (arbitrary fluorescence ratio units); higher = stronger transcriptional activation
- condition.info: beta-estradiol 1 µM; induction time 4 h
reported.metric: transcriptional activation domain activity

>  <primary.sequence>
RQIESMVAPCLVELRIWNIGAYANLCEYSTWLRLWWIRWSMYGIQFQDKTGKP

>  <endpoint.value>
61100

$$$$
>  <primary.sequence>
LLCILLLVYFIYVALFLVSINTGVTLSGLNIQMSSKYSVYYLLIYHVFGFFWL

>  <endpoint.value>
58900

$$$$
>  <primary.sequence>
FKDNPKVIETKDKVMHYNTQLRYHGLRDHQVNIRNTRRHAIALLIWRVVQMVF

>  <endpoint.value>
39500

$$$$
>  <primary.sequence>
VTRHHEFLRVHLNEKGEKLLYITHRLDKNGFDVRVFLVAASGFLTDSYILFVT

>  <endpoint.value>
39700

$$$$
>  <primary.sequence>
PQRLDMIHFPLIYVGCVGVLLFNPFKIFFGSARMYFLNTMWRLAFSGFYHVEF

>  <endpoint.value>
40000

$$$$

###

- Test system: Saccharomyces cerevisiae
- assay.details: transcriptional activation domain activity (GFP:mCherry ratio, weighted mean of sorted bins, harmonized to initial dataset scale) (arbitrary fluorescence ratio units); higher = stronger transcriptional activation
- condition.info: beta-estradiol 1 µM; induction time 4 h
reported.metric: transcriptional activation domain activity

>  <primary.sequence>
AAAAAPATTTTESAPAPAAEAAKPAEEAKPAATEAAPAADATAAAPAPAPAAA

>  <inequality.sign>
<

>  <endpoint.value>
6570

$$$$
>  <primary.sequence>
KKEKAEKNKQQSKGQGQGEGDKEQKKEGEGEGEGGKDARAKGEKDGKDEKGAK

>  <inequality.sign>
=

>  <endpoint.value>
46400

$$$$
>  <primary.sequence>
MGVLLVDFLTHWILFLFCSWFMLFSFGRFFGFSGSLLVRFLPDSDLLMFLVLL

>  <inequality.sign>
=

>  <endpoint.value>
70600

$$$$
>  <primary.sequence>
FHAWVSHIVQLNLFGLLSQTLMLIMFKLDVGTYFFLNDVILCKVYVFSLFVTL

>  <inequality.sign>
=

>  <endpoint.value>
65400

$$$$
>  <primary.sequence>
IEDSRRVDRGDEDKGREDHTRHRRRGSTDTGRRDERSHRDRRRSRSRSPASRR

>  <inequality.sign>
=

>  <endpoint.value>
21900

$$$$
>  <primary.sequence>
TLLASFVIDHLKEGVASDEIVLFAFADFQDTRSTNVVVLLRTLLAQLLDRCKP

>  <inequality.sign>
=

>  <endpoint.value>
65200

$$$$
>  <primary.sequence>
IFAFGYWLEESGKLLRLDLFTRFYAWGRIVLPRVGDAMIFYWENDTFGIRRGF

>  <inequality.sign>
=

>  <endpoint.value>
69000

$$$$
>  <primary.sequence>
IPHGKVGDIFLLFEFSYPIISTIIILFYYYYFYYLLSLHILYFFYYSRCWLLV

>  <inequality.sign>
=

>  <endpoint.value>
42300

$$$$
>  <primary.sequence>
ALKILVLLIFLMDTLHTYGVISYQWGLFLFCHHNATSACLSVLPWEIFMAVVL

>  <inequality.sign>
=

>  <endpoint.value>
56300

$$$$
>  <primary.sequence>
AALFLSVQHKLFYLVMSLARFNLYFLSYSFLLLHAKRRWHWYAEIASIMLFWS

>  <inequality.sign>
=

>  <endpoint.value>
50400

$$$$
>  <primary.sequence>
MGFFFVFYLLLSHCCFSLWVRGFGFFLSHPVFLFYILGGFCLVCFFPFFFPIN

>  <inequality.sign>
=

>  <endpoint.value>
48900

$$$$
>  <primary.sequence>
DQDAVMEDAPEANAETESQNSRRRRSRGKGRKSGASMAENVKVEQQAEAGSEN

>  <inequality.sign>
=

>  <endpoint.value>
29300

$$$$

###

- Tested on: Saccharomyces cerevisiae
- assay.details: transcriptional activation domain activity (GFP:mCherry ratio, weighted mean of sorted bins, harmonized to initial dataset scale) (arbitrary fluorescence ratio units); higher = stronger transcriptional activation
- condition.info: beta-estradiol 1 µM; induction time 4 h
reported.metric: transcriptional activation domain activity

>  <primary.sequence>
WYWLATTMYFLYGESVIYYFKHVVLVDKVLLPLATHHRFISFMLYIIGFVFFV

>  <inequality.sign>
=

>  <endpoint.value>
60400

$$$$
>  <primary.sequence>
TPYWVLWNLRSSYGPVWQFLLKWIPFNMLLHRYYHCVKMELGYLFIFGNDFLR

>  <inequality.sign>
=

>  <endpoint.value>
56300

$$$$
>  <primary.sequence>
ARKAFLLIEHMLELEGPPLIWNLLEILHNIMHLKQGRLFNMLIIHLMSLARSH

>  <inequality.sign>
=

>  <endpoint.value>
67400

$$$$
>  <primary.sequence>
FDIITASLENSYQTTLTEKGSQVMEKNMDQLDSVHNLNDDDLQQLLEDLGNID

>  <inequality.sign>
=

>  <endpoint.value>
111000

$$$$
>  <primary.sequence>
MAEDSDPSADGGLPMPYSCYECRNRKLKCDRRKDGCSRCAQAGGKCHYPTSRK

>  <inequality.sign>
=

>  <endpoint.value>
48800

$$$$
>  <primary.sequence>
GEDTAQEGGEEGATSADEEETASTTRSGRKPKKIKTAVPIKRKRRSGRGGIAA

>  <inequality.sign>
=

>  <endpoint.value>
31200

$$$$
>  <primary.sequence>
EEDEEDEDDDDDDDDDDDDDDDDDDEKPVHHKKPAHHRHHHKSKPVHHESQPA

>  <inequality.sign>
<

>  <endpoint.value>
6570

$$$$
>  <primary.sequence>
FFELLGLFVFFVLFLVGAAIASTFWGDLFWCHSFWQCRVLTVLVAFAWMCWVL

>  <inequality.sign>
=

>  <endpoint.value>
46900

$$$$
>  <primary.sequence>
LQQVCNVLPSFEQSSKIITDFFNTELETNEVSEVLDKTKIINDFTSSFLPSDE

>  <inequality.sign>
=

>  <endpoint.value>
50400

$$$$
>  <primary.sequence>
MSENTAVENVTATLEKTKLEAPVTNEAEVAHAASAAEGRRLYIGNLAYSTTEE

>  <inequality.sign>
=

>  <endpoint.value>
33100

$$$$
>  <primary.sequence>
MSKRLSFFFSGYLVLCGFSGVAFLFYFSLFNLVYYYPFLLLFNGFGGICIFLV

>  <inequality.sign>
=

>  <endpoint.value>
56800

$$$$
>  <primary.sequence>
KRCFSLFFFFFFSFLPFLFLFLSPYCLLNTFVPFSFSFLIYLILLLKFNLSAE

>  <inequality.sign>
=

>  <endpoint.value>
48900

$$$$
>  <primary.sequence>
LLFFFSFFFVCFKYFPPFFFSSFLSFSFYCLSILTYPIHYPPPVFGISGSFFV

>  <inequality.sign>
=

>  <endpoint.value>
51800

$$$$
>  <primary.sequence>
EATEPAEKPKRKRGRPPGSKNKKTLAAQGGTGEASAAEPPPKRPRGRPPKRKP

>  <inequality.sign>
=

>  <endpoint.value>
34600

$$$$
>  <primary.sequence>
SQLYFNVYPNELDERFSLFDPTYSLQWLFEHLFTTRVVELTRMLCFVMCIFVL

>  <inequality.sign>
=

>  <endpoint.value>
37700

$$$$
>  <primary.sequence>
MAWAIQGRLFSFNCSCSHFIFWPLFFFFSLPWRAWSSIGNNSRFSRLFFFFFL

>  <inequality.sign>
=

>  <endpoint.value>
60900

$$$$
>  <primary.sequence>
RGAARCFCVYFFLSLWHFYENHIFFFCSLFFHSLLLCHFFFSFFCVALRLLAC

>  <inequality.sign>
=

>  <endpoint.value>
33800

$$$$
>  <primary.sequence>
AKRGQNEALAGAKPERGGAGAKQDARAARGRAQGSGVRGAGRGAAGRGQAQQV

>  <inequality.sign>
=

>  <endpoint.value>
41100

$$$$
>  <primary.sequence>
MGVLFCVWSKFMGLHYSLVFFFVYPFSHCFSLLFPFFFFTIMSWYIVFYHTCF

>  <inequality.sign>
=

>  <endpoint.value>
70300

$$$$
>  <primary.sequence>
METTVSGQSSQPPAANDDQEPTKKRKRDKYVGKACGPCKRRKIRCGGGVPCES

>  <inequality.sign>
=

>  <endpoint.value>
36300

$$$$
>  <primary.sequence>
IIVICSVALYKVVSITGVGLVCLLLAGYLCFFNLFCSNVIRLSLLFLPINARP

>  <inequality.sign>
=

>  <endpoint.value>
58000

$$$$
>  <primary.sequence>
PAASGSDDDEPIAAKKPSAPRKRKAKVESDSDDEKPIAKKLAAKKPRASKVKA

>  <inequality.sign>
=

>  <endpoint.value>
14100

$$$$
>  <primary.sequence>
MTEREPDNEQQPRKRIAVACGRCRKRKIRCSGDPGNGEPCTNCRNANAEPCQF

>  <inequality.sign>
=

>  <endpoint.value>
38700

$$$$
>  <primary.sequence>
VLYGRLRVKAQLLECALWNISAWLSLPDVERKSYTMLFTTLGGLYDMTCRIYL

>  <inequality.sign>
=

>  <endpoint.value>
53000

$$$$
